# Tested on: Wolbachia pipientis
# experiment-description: Anti-Wolbachia Cell-Based Screen
# Type: functional
# Design: scale not given: in the data most compounds retested in dose-response had high values
# reported-conditions: 5 µM
The campaign covered roughly 48,000 compounds. About 13,000 (27%) showed an effect of 50% or more. Some of the results follow.
measure: Percent Effect (%)
Write the value in % as a bare number.

Ask | Which value of Percent Effect has been reported for Cc1ccc(CNCCCNS(C)(=O)=O)c(Br)c1 in the records?
Reply | 3.842

More entries:
Ask | Which value of Percent Effect has been reported for Cc1cnc(C(C)(C)NC(=O)NCc2ccon2)s1 in the records?
Reply | -28.31

----------
# Tested on: Wolbachia pipientis
# experiment-description: Anti-Wolbachia Cell-Based Screen
# Type: functional
# Set-up: scale not given: in the data most compounds retested in dose-response had high values
# reported-conditions: 5 µM
Screen size: about 48,000 compounds; about 13,000 (27%) showed an effect of 50% or more. The list shows a part of the results.
Percent Effect values by entry
Write the value in % as a bare number.

Examples with their reported Percent Effect follow.
Ask | Lookup: Percent Effect / Wolbachia pipientis / Cl.O=C(Nc1nc2c(s1)CNCC2)NC1CCCC1
Reply | 156.5

Ask | // next record Cc1nsc(NC(=O)NC2CCOCC2)n1
Reply | 5.232

Ask | // next record NC(=O)Cn1ccnc1C1CCCN(Cc2ccccc2OC(F)F)C1 (configuration not stated)
Reply | -1.119

More entries:
Ask | Lookup: Percent Effect / Wolbachia pipientis / c1ccc(-c2cnc(CNC3CCc4ncnn4C3)o2)cc1 (configuration not stated)
Reply | 7.622

Ask | // next record CC(C)c1nnc2n1CCN(CC(=O)N1CCc3ccccc3C1)C2
Reply | 2.244

Ask | // next record CN(Cc1ccsc1)C(=O)CN1CCc2c(ncn2C)C1
Reply | -3.155

Ask | // next record Cc1ccc(C2NC(=O)c3cc(C(C)C)sc3N2)cc1 (configuration not stated)
Reply | 93.7

Ask | // next record CN(Cc1ccccn1)C(=O)CNC(=O)N1CCc2ccccc2C1
Reply | 97.17

Ask | // next record O=C(NCc1nncn1C1CC1)C1(c2ccc(F)cc2)CCCC1
Reply | -0.2127

Ask | // next record CN(CCCc1cnn(C)c1)C(=O)Nc1cccc2[nH]ncc12
Reply | -6.714

Ask | // next record CC(C(=O)NCC(C)(C)c1ccc(Br)cc1)n1cncn1 (configuration not stated)
Reply | 77.11

----------
Percent Effect values by entry
# System: Wolbachia pipientis
# experiment-description: Anti-Wolbachia Cell-Based Screen
# Type: functional
# Set-up: scale not given: in the data most compounds retested in dose-response had high values
# reported-conditions: 5 µM
In all, about 48,000 compounds went through this assay and about 13,000 (27%) showed an effect of 50% or more. Some of the results follow.
Write the value in % as a bare number.

Ask | Which value of Percent Effect has been reported for CCN1CC(CN(C)Cc2nc(-c3ccc(C)o3)oc2C)CC1=O (stereo unspecified) in the records?
Reply | 106.5

More entries:
Ask | Which value of Percent Effect has been reported for Cc1oc(-c2ccoc2)nc1CN1CCC[C@H]1CO in the records?
Reply | 2.013

Ask | // next record CCN1CC(CN(C)Cc2nc(-c3ccc(F)cc3)oc2C)CC1=O (stereo unspecified)
Reply | 117.1

Ask | // next record CCCOC1CCCN(Cc2nc(-c3ccc(F)cc3F)oc2C)C1 (stereo unspecified)
Reply | 11.6

Ask | // next record CCN(CCn1cccn1)Cc1nc(-c2ccc(F)cc2)oc1C
Reply | 16.6

Ask | // next record CCN1CC(CN(C)Cc2nc(-c3ccc(F)cc3F)oc2C)CC1=O (stereo unspecified)
Reply | 223.2

----------
# System: Wolbachia pipientis
# experiment-description: Anti-Wolbachia Cell-Based Screen
# Format: functional
# Parameters: scale not given: in the data most compounds retested in dose-response had high values
# reported-conditions: 5 µM
Screen size: about 48,000 compounds; about 13,000 (27%) showed an effect of 50% or more. The list shows a part of the results.
Percent Effect values by entry
Write the value in % as a bare number.

Examples with their reported Percent Effect follow.
Ask | Which value of Percent Effect has been reported for CN1CCC/C1=N\S(=O)(=O)c1ccc(NC(=O)c2ccsc2)cc1 in the records?
Reply | 106.5

Ask | // next record Cc1nn(C)c(Cl)c1CNCc1cccnc1N1CCCCC1.Cl
Reply | 128.1

Ask | // next record COc1ncccc1CNCc1c(C(C)C)nn(C)c1Cl
Reply | -10.74

Ask | // next record Cc1nn(C)c(C)c1CNCc1ccnc(N2CCOCC2)c1
Reply | 7.637

Ask | // next record COc1c(CNCc2ccnc(N3CCCC3)c2)c(C)nn1C
Reply | 5.629

More entries:
Ask | Which value of Percent Effect has been reported for COc1c(CNCc2ccccc2CN2CCOCC2)c(C)nn1C in the records?
Reply | 9.735

----------
# Tested on: Wolbachia pipientis
# experiment-description: Anti-Wolbachia Cell-Based Screen
# Type: functional
# Parameters: scale not given: in the data most compounds retested in dose-response had high values
# reported-conditions: 5 µM
Out of some 48,000 compounds screened, about 13,000 (27%) showed an effect of 50% or more. The list shows a part of the results.
Percent Effect values by entry
Write the value in % as a bare number.

Examples with their reported Percent Effect follow.
Ask | Lookup: Percent Effect / Wolbachia pipientis / COCCN1CCCC(O)(CN2CCCN(c3ncccn3)CC2)C1=O (stereo unspecified)
Reply | -4.112

Ask | // next record CC(=O)N1CCN(C(=O)Nc2ccccc2)CC2(CC(=O)N(C)C2)C1 (stereo unspecified)
Reply | -20.73

Ask | // next record CN(C)CCn1ccnc1C1CCN(C(=O)CCC(F)(F)F)CC1
Reply | -12.98

Ask | // next record O=C(C1CC=CC1)N1CC[C@H]2[C@@H]1CCC(=O)N2c1ccccc1
Reply | -0.4954

Ask | // next record Cn1cc(NC(=O)N2CCC(c3ccccc3)CC2)ccc1=O
Reply | -11.38

Ask | // next record O=C(CCn1ccc(=O)[nH]c1=O)N1CCC(Oc2ncccc2Cl)CC1
Reply | 8.092

More entries:
Ask | Lookup: Percent Effect / Wolbachia pipientis / COCCNC(=O)[C@H]1C[C@@](CC(C)C)(C(=O)O)N(C)[C@H]1c1cccnc1
Reply | -5.7

Ask | // next record CC(O)CN1CCC(CNCc2cn(-c3ccccc3)nn2)CC1 (stereo unspecified)
Reply | 3.471

----------
# Tested on: Wolbachia pipientis
# experiment-description: Anti-Wolbachia Cell-Based Screen
# Type: functional
# Parameters: scale not given: in the data most compounds retested in dose-response had high values
# reported-conditions: 5 µM
About 13,000 (27%) of roughly 48,000 compounds showed an effect of 50% or more. The list shows a part of the results.
measure: Percent Effect (%)
Write the value in % as a bare number.

Examples with their reported Percent Effect follow.
Ask | Which value of Percent Effect has been reported for Cc1cccc(CN2C(=O)CO[C@@H]3CN(CCO)C[C@H]32)c1.O=C(O)C(F)(F)F in the records?
Reply | 23.75

Ask | // next record CN1CCC(N(C)CCC(=O)N2CCN(Cc3cccc(F)c3)CC2)C1 (stereo not given)
Reply | -12.08

Ask | // next record Cc1cnn(CC2CCCN2C(=O)c2cc3ccccc3c(=O)[nH]2)c1 (stereo not given)
Reply | 122.8

Ask | // next record Cc1cnn(CC2CCCN2C(=O)c2cc3ccccc3[nH]c2=O)c1 (stereo not given)
Reply | -0.3129

More entries:
Ask | Which value of Percent Effect has been reported for O=C1COc2c(cccc2C(=O)N2CCCC2Cn2cccn2)N1 (stereo not given) in the records?
Reply | -10.2

Ask | // next record O=C1COc2c(cccc2C(=O)N2CCCCC2Cn2cccn2)N1 (stereo not given)
Reply | -1.784

Ask | // next record CN(C)C(=O)CO[C@H]1CN(Cc2cccc(F)c2)[C@@H]2CCCO[C@H]12.O=C(O)C(F)(F)F
Reply | 5.103

Ask | // next record Cc1cnn(CC2CCCN2C(=O)c2n[nH]c(=O)c3ccccc23)c1 (stereo not given)
Reply | 115

Ask | // next record COc1ccc(CN2CCCC2)cc1Oc1ccc2c(c1)CC(CN)O2 (stereo not given)
Reply | -16.95

Ask | // next record Cc1cc(C)cc(CN2C[C@@H]3OCCN(CC(=O)N(C)C)[C@@H]3C2)c1.O=C(O)C(F)(F)F
Reply | 122.5

----------
# System: Wolbachia pipientis
# experiment-description: Anti-Wolbachia Cell-Based Screen
# Format: functional
# Parameters: scale not given: in the data most compounds retested in dose-response had high values
# reported-conditions: 5 µM
About 13,000 (27%) of roughly 48,000 compounds showed an effect of 50% or more. The list shows a part of the results.
measure: Percent Effect (%)
Write the value in % as a bare number.

Ask | Which value of Percent Effect has been reported for CN(c1ccccc1C(=O)O)S(=O)(=O)c1cccc2cccnc12 in the records?
Reply | -35.11

Ask | // next record CC(=O)N1CCN(C(=O)C(C)Nc2ccc3ncsc3c2)CC1 (stereo not given)
Reply | -9.61

More entries:
Ask | Which value of Percent Effect has been reported for O=C(COC1CCCCC1)Nc1ccn(CCc2ccncc2)n1 in the records?
Reply | -1.367

Ask | // next record Cc1oc(-c2cccs2)nc1C(=O)N(C)C1(C#N)CCC1
Reply | 6.807

Ask | // next record CC(=O)N(C)CC(=O)NC1(c2ccc(Br)cc2)CC1
Reply | -3.81

All figures here come from ChEMBL document CHEMBL3988442.
